Tested on: MDA-MB-231
Assay: NCI tumour cell line growth inhibition, 48 h
Active and inactive are the calls of the source. Rule as the data show it: active = GI50 up to about 1.1 µM and inactive = higher. Where a SMILES comes first, the peptide text is derived from it. The star is where a group is joined. Cbz = O=C(OCc1ccccc1)*; Boc = CC(C)(C)OC(=O)*; OSu = O=C1CCC(=O)N1O*; Bn = c1ccc(C*)cc1
Labels: active, inactive

COMPOUND	QUALITATIVE_LABEL
CCOc1ncn(-c2ccc(NC(=S)Nc3cccc(O)c3)cc2)n1	inactive
COc1cc(Br)cc2cc(-c3cn4c(n3)sc3ccccc34)c(=O)oc12	inactive
CO[C@@H]1C=C[C@@]23c4cc5c(cc4C(O)N(CC2O)C3C1)OCO5 (stereo partly specified)	inactive
CCOC(=O)Cn1sc2ncc([N+](=O)[O-])cc2c1=O	inactive
O=C1C(NS(=O)(=O)c2ccccc2)=C(N(Cc2ccccc2)Cc2ccccc2)C(=O)c2ccccc21	inactive
N/C(S)=N/N=C/c1ncccc1O	inactive
O=C(O)C1CCCN1Cc1cc2ccccc2c2ccccc12 (stereo unspecified)	inactive
O=c1oc2ccc3ccccc3c2cc1-c1nc2ccccc2s1	inactive
CCCCC(CC)C(=O)Oc1ccc(C(=O)c2ccccc2)c(O)c1 (stereo unspecified)	inactive
Nc1nc(SCc2ccccn2)c2ncn(C3CCCC3)c2n1	inactive
Cc1cc(=O)oc2c(CN(CCCl)CCCl)c(O)ccc12	inactive
CC(=O)NC1C(OCc2ccccc2)OC(CO)C(O)C1OC(C)C(=O)NC(C)C(=O)NC(CCC(=O)NCCCCNc1c2ccccc2nc2cccc([N+](=O)[O-])c12)C(N)=O (stereo unspecified)	active
O=C1C2=C(SCCS2)C(=O)c2c(Sc3ccc(Cl)cc3)c(Sc3ccc(Cl)cc3)c(Sc3ccc(Cl)cc3)c(Sc3ccc(Cl)cc3)c21	inactive
N=C(N)NCCNC(=N)N	inactive
O=C1CCCCCC1CC(Sc1ccccc1)Sc1ccccc1 (stereo unspecified)	inactive
N#Cc1c(Cl)cc(Cl)n2c1nc1ccccc12	inactive
CNC(=O)CCCNC(=O)CCCC(=O)N(C)C	inactive
Cc1ccccc1S(=O)(=O)OC1NS(=O)(=O)c2ccccc21 (stereo unspecified)	inactive
COc1ccc(-c2cc(=O)c3c(O)c(OC)c(OC)c(OC)c3o2)cc1 [GARDENIN B]	inactive
CC(C)(C)OC(=O)NC(Cc1ccc(OCc2ccccc2)cc1)C(=O)NC(CCCCNC(=O)OCc1ccccc1)C(=O)ON1C(=O)CCC1=O (stereo unspecified) (Boc-Tyr(Bn)-Lys(Cbz)-OSu; configuration not given here)	inactive
CCN1CN(c2ccccc2)C2(CCN(CCCSc3ccc(F)cc3)CC2)C1=O	inactive
O[C@H]1[C@H](O)[C@@H](O)[C@H](O)[C@@H](O)[C@H]1O [INOSITOL]	inactive
CC(=O)c1ccc2c(c1)oc(=O)n2CCN1CCCCC1	inactive
CCCc1cc2c(cc1O)CC[C@@H]1[C@@H]2CC[C@]2(C)[C@@H](O)CC[C@@H]12	inactive
CC(=O)O[C@H]1CC[C@H]2[C@@H]3CCC(C(C)=O)[C@H](C(=O)O)[C@H]3CC[C@]12C (stereo partly specified)	inactive
CCOC(=O)n1c(=O)nc2c3c(ncn21)Oc1c(c(-c2ccccc2)nn1-c1ccccc1)C3c1ccc(Cl)cc1 (stereo unspecified)	inactive
ClC1=C(Cl)C2OC3C=CCC3OC2C(Cl)=C1Cl (stereo unspecified)	inactive
Nc1nc(N)c2nc(CN(C=O)c3ccc(C(=O)O)cc3)cnc2n1	inactive
O=C1c2ccccc2NC(c2cc(Cl)cc(Cl)c2O)N1CCc1ccccn1 (stereo unspecified)	inactive
COc1ccc2c3c1OC1C(OC)(OC)CC4(C=C2)CN(C)CCC314 (stereo unspecified)	inactive
CC1=NN(c2cccc(Cl)c2)C2(SCC(=O)N2c2nc3ccccc3s2)/C1=C\c1cccs1 (stereo unspecified)	inactive
CN[C@@H]1C[C@H]2O[C@@](C)([C@@H]1OC)n1c3ccccc3c3c4c(c5c6ccccc6n2c5c31)C(=O)N[C@@H]4O	active
CCOC1CN(C)/C(=N\c2cccc3ccccc23)S1 (stereo unspecified)	inactive
CCOC1CCN(C(=O)c2ccccc2)O1 (stereo unspecified)	inactive
O=C(CSc1nc2ccccc2c(=O)n1-c1ccccc1)N/N=C1\C(=O)Nc2ccc(Br)cc21	inactive
CN(C)c1ccc(/C=C2\C[C@H]3[C@@H]4CC=C5C[C@@H](O)CC[C@]5(C)[C@H]4CC[C@]3(C)[C@H]2O)cc1	inactive
Cn1c(N2CCCC2)c(C=O)c(=O)n(C)c1=O	inactive
CSCCCNC(=O)c1csc(-c2csc(CCNC(=O)CNC(=O)CNC(=O)CNC(=O)OC(C)(C)C)n2)n1	inactive
NC1CC2NC3CCCCC3NC2CC1N (stereo unspecified)	inactive
Cc1cc2sc(C)[n+](CCCOS(=O)(=O)[O-])c2cc1C	inactive
CC(=O)OC1CC2C(=O)C(=O)C1(C)C2(C)C (stereo unspecified)	inactive
